Molecular target: T1, Sgf29 D266A variant, residues 115-293 (human, UniProt Q96ES7 115-293, D266A)
T1 construct: source: E. coli Rosetta BL21 DE3 PlysS, purified (Ni-NTA, TEV cleavage, SEC Superdex 75)
T1 sequence (looked up): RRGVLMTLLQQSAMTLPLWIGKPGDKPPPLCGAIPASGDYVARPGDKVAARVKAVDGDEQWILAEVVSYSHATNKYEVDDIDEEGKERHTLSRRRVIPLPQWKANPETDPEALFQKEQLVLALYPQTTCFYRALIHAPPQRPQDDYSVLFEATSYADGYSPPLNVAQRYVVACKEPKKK
Test: ITC; peptide (generally 1.2 mM) titrated to protein (100 uM); for variants of low affinity 2.4 mM peptide to 200 uM protein; 25 mM TRIS pH 8.0, 50 mM NaCl, 1 mM DTT; one-site model
Details: both partners purified
pKd: −log10 of the molar value. No end group written: not given here. Me3 = trimethyl (on lysine, trimethyllysine)
QUANTITY: pKd

* ARTK(Me3)QTARKS-OH (histone H3 N-terminal tail, 10-mer, K4 trimethylated; also called native 10-mer peptide; source: synthetic peptide (manual Fmoc solid-phase synthesis, preparative HPLC)) [10-mer histone 3 peptide H3K4me3 (ARTKme3QTARKS)] | 4.60
